Exercise: for every item that follows, state its recorded selectivity verses cathepsin K.
Target: Human recombinant cathepsin S (Homo sapiens (Human))
Sequence (P25774 115-331): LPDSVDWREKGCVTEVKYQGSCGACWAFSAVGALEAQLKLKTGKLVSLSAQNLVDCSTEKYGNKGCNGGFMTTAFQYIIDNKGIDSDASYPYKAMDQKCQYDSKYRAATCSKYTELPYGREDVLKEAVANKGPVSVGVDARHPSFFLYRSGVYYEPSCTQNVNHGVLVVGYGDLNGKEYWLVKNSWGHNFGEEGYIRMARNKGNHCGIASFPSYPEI
Test: In vitro cathepsin Ki inhibition measurements, cathepsin S
Format: biochemical
Settings: cathepsin S over cathepsin K
Protocol: Stock solutions of substrate or inhibitor were made up to 10 mM in 100% dimethylsulfoxide (DMSO) (Rathburns, Glasgow, U.K.) and diluted as appropriately required. […] The equilibrium inhibition constants (Ki^ss) for each compound were measured under steady-state conditions monitoring enzyme activity as a function of inhibitor concentration. The values were calculated on the assumption of pure competitive behaviour (Cornish-Bowden, A. Fundamentals of enzyme kinetics Portland Press; 1995, 93-128.). […]
Give the number; fold is assumed, so skip it.

Hello, please tell me recorded selectivity verses cathepsin K for this one: `O=C(N[C@H](C(=O)N1C[C@H](Cl)[C@H]2OCC(=O)[C@H]21)C1CCCCC1)c1cccc(-n2cnnn2)c1`
7.5

Hello, please tell me recorded selectivity verses cathepsin K for this one: `O=C(N[C@H](C(=O)N1C[C@H](F)[C@H]2OCC(=O)[C@H]21)C1CCCCC1)c1cccc(-n2cnnn2)c1`
6.8

Hello, please tell me recorded selectivity verses cathepsin K for this one: `O=C(N[C@H](C(=O)N1C[C@H](Cl)[C@H]2OCC(=O)[C@H]21)C1CCCCC1)c1ccccc1`
4

###

Exercise: for every item that follows, state its recorded Ki.
Target: UniProt:P07858
Assay: In vitro cathepsin Ki inhibition measurements, cathepsin B
Format: biochemical
Settings: read-out: In vitro Ki (nM) vs Cath B

Hello, please tell me recorded Ki for this one: `C[C@H]1CC[C@H]([C@H](NC(=O)c2cccc(-n3ccnc3)c2)C(=O)N2C[C@H](Cl)[C@H]3OCC(=O)[C@H]32)CC1`
4000 nM

Hello, please tell me recorded Ki for this one: `C[C@H]1CC[C@H]([C@H](NC(=O)c2cccc(-n3ccnc3)c2)C(=O)N2C[C@H](F)[C@H]3OCC(=O)[C@H]32)CC1`
> 10000 nM

Hello, please tell me recorded Ki for this one: `C[C@H]1CC[C@H]([C@H](NC(=O)c2ccccc2)C(=O)N2C[C@@H](Cl)[C@H]3OCC(=O)[C@H]32)CC1`
> 10000 nM

Hello, please tell me recorded Ki for this one: `O=C(N[C@H](C(=O)N1CC[C@H]2OCC(=O)[C@H]21)C1CCCCC1)c1cccc(-n2cnnn2)c1`
> 10000 nM

Hello, please tell me recorded Ki for this one: `O=C(N[C@H](C(=O)N1C[C@H](F)[C@H]2OCC(=O)[C@H]21)C1CCCCC1)c1ccccc1`
> 7000 nM

Hello, please tell me recorded Ki for this one: `O=C(N[C@H](C(=O)N1CC[C@H]2OCC(=O)[C@H]21)C1CCCCC1)c1ccccc1`
> 10000 nM

Hello, please tell me recorded Ki for this one: `C[C@H]1CC[C@H]([C@H](NC(=O)c2cccc(-n3cnnn3)c2)C(=O)N2CC[C@H]3OCC(=O)[C@H]32)CC1`
> 10000 nM

Hello, please tell me recorded Ki for this one: `C[C@H]1CC[C@H]([C@H](NC(=O)c2cccc(-n3cnnn3)c2)C(=O)N2C[C@@H](Cl)[C@H]3OCC(=O)[C@H]32)CC1`
> 10000 nM
